Origin of values: paper PMC4057235

- testedTarget: PAR2 (Homo sapiens, UniProt P55085)
- Construct: 16HBE14o- cells on E-plates in growth medium; endogenous in cells; host or cells: 16HBE14o- cells
- Sequence (P55085 26-397): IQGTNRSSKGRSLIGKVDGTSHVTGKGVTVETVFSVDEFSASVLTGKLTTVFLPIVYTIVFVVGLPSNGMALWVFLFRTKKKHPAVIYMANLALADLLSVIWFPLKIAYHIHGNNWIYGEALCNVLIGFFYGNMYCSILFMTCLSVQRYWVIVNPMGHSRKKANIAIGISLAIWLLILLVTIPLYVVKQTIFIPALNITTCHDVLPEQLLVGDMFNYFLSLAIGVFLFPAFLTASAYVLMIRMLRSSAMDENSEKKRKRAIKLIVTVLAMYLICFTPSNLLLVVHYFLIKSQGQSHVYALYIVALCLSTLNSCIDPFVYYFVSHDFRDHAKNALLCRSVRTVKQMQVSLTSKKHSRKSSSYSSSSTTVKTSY
- testName: xCELLigence RTCA in vitro physiological response, 16HBE14o- cells
- Type: cell-based
- particulars: peak Normalized Cell Index within 4 hr
- Procedure: 16HBE14o- cells, a SV40 transformed human bronchial epithelial cell line, were obtained through the California Pacific Medical Center Research Institute (San Francisco, CA, USA). Cells were maintained and expanded as previously described. […] 16HBE14o- cells on E-plates in growth medium and in a 37°C, 5% CO2 incubator were monitored for the establishment for relative impedance overnight every 15 min using the xCELLigence™ Real Time Cell Analyzer (RTCA, Roche), [28], [30]. […]
Square brackets hold non-standard residues; d marks the D form. Peptide text beside a SMILES is read from it. * marks the point of attachment. 4Thiazolecarbonyl(2-NH2) = Nc1nc(C(=O)*)cs1; Cha = N[C@@H](CC1CCCCC1)C(=O)O
EC50 values by entry
Report as a plain number; the unit nM is understood.

Worked examples, 3 molecules total:
molecule | EC50, nM
CCCCCCCCCCCCCCCCNC(=O)COCC(=O)NCCCOCCOCCOCCCNC(=O)COCC(=O)NCCCOCCOCCOCCCNC(=O)COCC(=O)NCCCOCCOCCOCCCNC(=O)CNC(=O)[C@@H](NC(=O)[C@H](CC(C)C)NC(=O)c1csc(N)n1)[C@@H](C)CC | 46
CCCCCCCCCCCCCCCCNC(=O)COCC(=O)NCCCOCCOCCOCCCNC(=O)COCC(=O)NCCCOCCOCCOCCCNC(=O)COCC(=O)NCCCOCCOCCOCCCNC(=O)[C@H](CCCNC(=N)N)NC(=O)CNC(=O)[C@@H](NC(=O)[C@H](CC(C)C)NC(=O)c1csc(N)n1)[C@@H](C)CC | 2.1
CCCCCCCCCCCCCCCCNC(=O)COCC(=O)NCCCOCCOCCOCCCNC(=O)COCC(=O)NCCCOCCOCCOCCCNC(=O)[C@@H](NC(=O)[C@H](CC1CCCCC1)NC(=O)c1ccno1)[C@@H](C)CC | 43

Alright, here's another molecule for you.
Query: Reported EC50, molecule CC[C@H](C)[C@H](NC(=O)[C@H](CC1CCCCC1)NC(=O)c1csc(N)n1)C(=O)NCC(=O)N[C@@H](CCCNC(=N)N)C(N)=O [Compound 7, 2at-Cha-IGR-NH2] ({4Thiazolecarbonyl(2-NH2)}-[Cha]IGR-NH2) : ____
Reply: 490
